System: MS2 coat protein
Assay: apparent KD of MS2 coat protein; designed switch direction (-1 OFF switch, 1 ON switch): -1; higher = weaker reporter binding
Details: input ligand: microRNA oligo, concentration not stated
QUANTITY NAME: apparent KD of MS2 coat protein (nM)
One number for each entry, in nM.

Would you please look over these solved cases?
Please report the recorded apparent KD of MS2 coat protein for CAGUACUGAGGAUAUACAUGAGGAUCACCCAUGUGUUCCAGGUAGGAAACUAGCAAAAGUAGAAGGCAGUACUG [salish99_ex3_r3_078] (Eterna round: R96, puzzle: Exclusion 3) .
17.5

Repeat for the following sequence: UUGUACCGGUGAGGAUAUUUUUAAUAGAACUUUAUGAUAUACAUGAGGAUCACCCAUGUUACUUUAAAGAAGGCAUCGGAUUAU [JL JR Sub091 mod 1] (Eterna round: R96, puzzle: Exclusion NG 2)
12.9

Repeat for the following sequence: UCACGGGUUUGAGGAUAUAUAUUUAUUAUUUUAAUAGAAGGCAAAGAGAUAGUUUUUUCACUAUACAUGAGGAUCACCCAUGUU [JR_ExcNG1_Sub087] (Eterna round: R96, puzzle: Exclusion NG 1)
27.6

Repeat for the following sequence: UUGACGUCGUCAGGAUAUAGUUUUAAUGUCAUGCGUAUGUUCUUACAUGAGGAUCACCCAUGUCGCUAGAAGGGACUAAAGAUU [JR_ExcNG2_Sub011] (Eterna round: R96, puzzle: Exclusion NG 2)
23.5

Repeat for the following sequence: UUUGUUUAUGUAGGAUAUGCCUGGCGUGCCUUUGCAGAAGGACAUGAGGAUCACCCAUGUAACAUGAGGCUCACCCAUGUCGCU [salish99_ExNG1_r04_111] (Eterna round: R96, puzzle: Exclusion NG 1)
180

Repeat for the following sequence: CUCCGGCAUGUAGGAUAUGGAUCCGAUUAGGAUCCAGAAGGACAUGAGGAUCACCCAUGUACAUGUAAACAGUCAUCACCGGAC [salish99_ExNG1_r04_202] (Eterna round: R96, puzzle: Exclusion NG 1)
29.9

Look up apparent KD of MS2 coat protein for the entries below, preserving their order.
1. AGCUGUGGCCGAGGAUAUCUACAUGAGGAUCACCCAUGUGGGUGAAAUAUCGGGAAAACCUCGAUGGAGAAGGCGGUCUCAGCA [Eli eng2 - 046] (Eterna round: R96, puzzle: Exclusion NG 2)
2. AUGCUCCGUGUAGGAUAUCGCCGUAUUAUUCGGCGAGAAGGACAUGAGGAUCACCCAUGUAUGUUAUUAUCACGUGUGGCGCGC [Design 47] (Eterna round: R96, puzzle: Exclusion NG 1)
3. CAUGAUUGGGAAGGAUAUUGACCUAGUUAGCGCCGAGAAGGUCCCUUUCACAUGAGGAUCACCCAUGUGAGUCUGGUGUUCGAG [Ex NG1 #96] (Eterna round: R96, puzzle: Exclusion NG 1)
4. AAGAUGCGGGUAGGAUAUGGGAAUUAAUAAAGACCAGAAGGACUGGUCACACAACAUGAGGAUCACCCAUGUGUGUGUAGUGAA [exng1 ex1] (Eterna round: R96, puzzle: Exclusion NG 1)
5. UGUUGUCGCGUAGGAUAUGUAUGAGGAUCACCCAUAAGAGUAUAUUUACCAUGAGGAUCACCCAUGUAGAAGGACGGGACAACU [pwkr exNG2 2xF5 1xFMN.12] (Eterna round: R96, puzzle: Exclusion NG 2)

[234, 13.6, 26.8, 9.2, 75.6]

Look up apparent KD of MS2 coat protein for the entries below, preserving their order.
1. GAUGUGGGUUUUCAGAGUAACAUGAGGAUCACCCAUGUAGAAGUUGGAGGGAUCAAGCUUUUUGGUCGUCAUAUGUG [JR_SV3TOV1_Sub051] (Eterna round: R96, puzzle: Sensor v3, turn-off variant 1)
2. CAAUAUUAUCGAGGAUAUCCUAUUGUAUUUCAGGGAGAAGGCGGACUCAACAUGAGGAUCACCCAUGUAAGACGGGUACUAGAU [Ex NG1 #19] (Eterna round: R96, puzzle: Exclusion NG 1)
3. AUUGUUUAUGUAGGAUAUGCCUGGCGUGCCUUUGCAGAAGGACAUGAGGAUCACCCAUGUAACAUGAGGCUCACCCAUGUCGCA [salish99_ExNG1_r04_113] (Eterna round: R96, puzzle: Exclusion NG 1)
4. ACAUGAGGAUCACCCAUGUUUAUUGGGUACUAUACUAUCAGCAAGGAUAUGCAAAUUUUUUUUACGCAGAAGGUGCAGGAACCU [JR_ExcNG3_Sub070] (Eterna round: R96, puzzle: Exclusion NG 3)
5. AUUUUAUUCUGAGGAUAUUGAUUAAUCCUCUCACAUGAGGAUCACCCAUGUUUCCGUGUUUACCGCAAGAAGGCAGUUUUGUAU [JR_ExcNG2_Sub025] (Eterna round: R96, puzzle: Exclusion NG 2)
6. CAAGCUUUUCCAUUUCUAUACAUGAGGAUCACCCAUGUCCCGAGUUGGGUGAGCACUCUGGUCGUCGUUUCUACCAA [Envele] (Eterna round: R96, puzzle: Sensor v2, turn-off variant)

[358, 69.8, 255, 355, 35.2, 181]

Please report the recorded apparent KD of MS2 coat protein for CUUCUCUCAUGGAAUCCUGACAUGAGGAUCACCCAUGUUGCUGAGGAUAUCCAGCGCUACGGCGCGGAGAAGGCGGCUCUUAAA [Enties] (Eterna round: R96, puzzle: Exclusion NG 3) .
10
